Just for reference, patent US20100081679A1 is where these values come from.

Measured logP values are reported for all entries that follow.
Assay: logP determination via retention times, calibrated with unbranched alkan-2-ones
Type: physicochemical
Details: HPLC on reversed-phase C18, method *: 40° C., 0.1% aqueous formic acid and acetonitrile, linear gradient 10% to 95% acetonitrile
Marks after values point to notes of the source that are not given here.
PROPERTY MEASURED: logP

smiles_str=CCCCC(=O)Oc1ccc(Nc2ncc(Cl)c(NC3CC3)n2)cc1 observed=3.68*
smiles_str=Clc1cnc(Nc2cccc(-c3ccco3)c2)nc1NC1CC1 observed=2.54*
smiles_str=Oc1ccc(Nc2ncc(Cl)c(NCC3CC3)n2)cc1 observed=1.36*
smiles_str=N#Cc1ccccc1Nc1ncc(Cl)c(NC2CC2)n1 observed=0.85*
smiles_str=N#CCc1cccc(Nc2ncc(C(F)(F)F)c(NC3CC3)n2)c1 observed=2.56*
smiles_str=C=CCNC(=O)c1ccc(Nc2ncc(Br)c(NC3CC3)n2)cc1 observed=1.73*
smiles_str=CN1CC(=O)N(c2ccc(Nc3ncc(Cl)c(NC4CC4)n3)cc2)C1=O observed=1.29*
smiles_str=CS(=O)(=O)Nc1ccc(Nc2ncc(Br)c(NC3CC3)n2)cc1 observed=1.44*
smiles_str=Oc1ccc(Nc2ncc(Br)c(NC3CC3)n2)cc1 observed=1.17*

====

Assay: logP determination via retention times, calibrated with unbranched alkan-2-ones
Type: physicochemical
Conditions: HPLC on reversed-phase C18, method *: 40° C., 0.1% aqueous formic acid and acetonitrile, linear gradient 10% to 95% acetonitrile
Marks after values point to notes of the source that are not given here.
PROPERTY MEASURED: logP

compound="FC(F)(F)c1ccc(Nc2ncc(Br)c(NC3CC3)n2)cc1 [compound 740]" observed=3.33*
compound="CC(=O)CCc1cccc(Nc2ncc(Br)c(NC3CC3)n2)c1 [compound 967]" observed=1.83*
compound="O=C(Nc1ccccc1)Nc1cccc(Nc2ncc(Cl)c(NC3CC3)n2)c1 [compound 717]" observed=1.93*
compound="O=C1CCCN1c1ccc(Nc2ncc(Cl)c(NCC3CC3)n2)cc1 [compound 154]" observed=1.5*
compound="Brc1cnc(Nc2ccccc2)nc1NC1(COc2ccccc2)CC1 [compound 932]" observed=3.03*
compound="CC(Nc1nc(Nc2ccccc2)ncc1Cl)C1CC1 (stereo not shown) [compound 166]" observed=2.14*
compound="FC(F)(F)c1cnc(Nc2ccccc2)nc1NCC1CC1 [compound 922]" observed=2.99*
compound="CC(C)(C)C(=O)Cc1ccc(Nc2ncc(Cl)c(NCC3CC3)n2)cc1 [compound 676]" observed=2.39*
compound="FC(F)Sc1ccc(Nc2ncc(Br)c(NC3CC3)n2)cc1 [Example 104]" observed=2.99*
compound="FC(F)(F)c1cc(Nc2ncc(Cl)c(NC3CC3)n2)cc(C(F)(F)F)c1 [compound 903]" observed=4.56*
compound="Oc1ccc(Nc2ncc(Cl)c(NC3CC3)n2)cc1F [compound 105]" observed=1.25*
compound="Brc1cnc(Nc2ccc(OCCN3CCCCC3)cc2)nc1NC1CC1 [compound 117]" observed=1.07*
compound="O=C1CCCCN1c1cccc(Nc2ncc(Cl)c(NC3CC3)n2)c1 [compound 713]" observed=1.47*
compound="O=C1CCCCN1c1cccc(Nc2ncc(Br)c(NC3CC3)n2)c1 [compound 733]" observed=1.55*
compound="CC(Cl)c1cccc(Nc2ncc(C(F)(F)F)c(NCC3CC3)n2)c1 (stereo not shown) [compound 703]" observed=3.89*
compound="Clc1cnc(Nc2ccccc2Oc2ccccc2)nc1NC1CC1 [compound 901]" observed=3.14*
compound="Clc1cc(Cl)cc(Nc2ncc(Br)c(NC3CC3)n2)c1 [compound 749]" observed=4.43*
compound="COCC(C)Nc1ccc(Nc2ncc(Cl)c(NC3CC3)n2)cc1 (stereo not shown) [Example 110]" observed=2.03*
compound="FC(F)c1cnc(Nc2ccccc2)nc1NCC1CC1 [compound 773]" observed=1.68*
